- System: SK-LU-1
- METHOD_NOTES: relative viability (nuclei count vs DMSO), 5 days (fraction); higher = more cells survive
- TEST_SETTINGS: first compound 0.1581 µM
MEASURE_NAME: relative viability
// return just the number, without any unit appended

// worked examples, relative viability included
MOLECULE	MEASURE_NAME	EXPERIMENTAL_RESULT
CC1(C)CCC(c2ccc(Cl)cc2)=C(CN2CCN(c3ccc(C(=O)NS(=O)(=O)c4ccc(N[C@H](CCN5CCOCC5)CSc5ccccc5)c(S(=O)(=O)C(F)(F)F)c4)cc3)CC2)C1 [Navitoclax] + CC(=O)Nc1cccc(-n2c(=O)n(C3CC3)c(=O)c3c(Nc4ccc(I)cc4F)n(C)c(=O)c(C)c32)c1 [Trametinib] (partner 0.02 µM)	relative viability	0.601
CC1(C)CCC(c2ccc(Cl)cc2)=C(CN2CCN(c3ccc(C(=O)NS(=O)(=O)c4ccc(N[C@H](CCN5CCOCC5)CSc5ccccc5)c(S(=O)(=O)C(F)(F)F)c4)cc3)CC2)C1 [Navitoclax] + CC(=O)c1c(C)c2cnc(Nc3ccc(N4CCNCC4)cn3)nc2n(C2CCCC2)c1=O [Palbociclib] (partner 0.5 µM)	relative viability	0.384

Here's the next entry for you.
Task: Find the recorded relative viability belonging to CC1(C)CCC(c2ccc(Cl)cc2)=C(CN2CCN(c3ccc(C(=O)NS(=O)(=O)c4ccc(N[C@H](CCN5CCOCC5)CSc5ccccc5)c(S(=O)(=O)C(F)(F)F)c4)cc3)CC2)C1 [Navitoclax] + Nc1ncn([C@H]2C[C@H](O)[C@@H](CO)O2)c(=O)n1 [Decitabine] (partner 2 µM) and report it.
Result: 0.609
